- target_desc: PDE4D2 (Homo sapiens)
- Sequence (Q08499 303-809 limits assumed): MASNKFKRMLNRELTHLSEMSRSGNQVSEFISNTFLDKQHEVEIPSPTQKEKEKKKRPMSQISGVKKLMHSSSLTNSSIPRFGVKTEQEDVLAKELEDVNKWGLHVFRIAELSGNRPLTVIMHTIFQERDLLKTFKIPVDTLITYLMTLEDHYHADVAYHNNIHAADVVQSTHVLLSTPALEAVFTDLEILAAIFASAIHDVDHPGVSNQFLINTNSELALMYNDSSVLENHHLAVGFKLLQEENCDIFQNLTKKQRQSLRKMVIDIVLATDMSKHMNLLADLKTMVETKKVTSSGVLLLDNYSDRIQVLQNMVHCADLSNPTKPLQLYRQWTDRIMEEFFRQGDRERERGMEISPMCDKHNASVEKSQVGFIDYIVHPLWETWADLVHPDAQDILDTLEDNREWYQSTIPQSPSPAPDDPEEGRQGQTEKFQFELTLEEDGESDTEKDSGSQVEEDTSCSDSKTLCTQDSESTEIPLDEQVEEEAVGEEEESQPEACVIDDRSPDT
- assay_text: PDE4D2 enzyme experiment (AMP-Glo)
- test_context: read-out: PDE4D2 IC50 Binding; enzyme assay
Simple rule here: IC50 less than 0.6 nM is Y, otherwise N.

Worked examples, 5 compounds total:
| compound | assigned_class |
| --- | --- |
| [O-][S+]1CCc2nc(N3CCc4cc(N5CC6C(C5)C6(F)F)ccc4C3)nc(NC3(CO)CCC3)c21 (stereo not shown) | N |
| C[C@H]1Cc2cc(Cl)ccc2CN1c1nc2c(c(NC3(CO)CCC3)n1)[S+]([O-])CC2 (stereo partly shown) | N |
| N#CC1CCN(c2ccc3c(c2)CCN(c2nc4c(c(NC5(CO)CCC5)n2)[S+]([O-])CC4)C3)C1 (stereo not shown) [Compound 160] | N |
| [O-][S+]1CCc2nc(N3CCc4cc(N5CCC[C@H]5CO)ccc4C3)nc(NC3(CO)CCC3)c21 (stereo partly shown) | N |
| [O-][S+]1CCc2nc(N3CCc4cc(N5CCCCC5)ccc4C3)nc(NC3(CO)CCC3)c21 (stereo not shown) | Y |

### Prompt Hello, I'm reviewing records and need to know if IC50 of [O-][S+]1CCc2nc(N3CCc4cc(N5CC[C@@H](CO)C5)ccc4C3)nc(NC3(CO)CCC3)c21 (stereo partly shown) is below 0.6 nM. Could you check?
### Response Y
